test system: RH7777 cells; assay: SRB assay, RH7777 control cells; format: cell-based; details: Homo sapiens, RH7777, 96 h, read-out: IC50 ± SEM RH7777
READOUT_NAME: pIC50
Numbers only, as −log10 of the molar value.

Problem: For the compound CCCCCCCCCCCCCCCCNC(=O)[C@@H]1CSC(c2cc(OC)c(OC)c(OC)c2)N1 (mixture of isomers) , what pIC50 is on record?
Solution: 5.14

====

Assign IC50 to each entry below.
test system: LNCaP cells; assay: SRB antiproliferative assay, LNCaP prostate cancer cells; assay type: cell-based, human; conditions: Homo sapiens, LNCaP, 96 h, read-out: IC50 ± SEM LNCaP
Answers are plain numbers, in µM.

CCCCCCCCCCCCCCCCNC(=O)[C@@H]1CSC(c2ccc(NC(C)=O)cc2)N1 (mixture of isomers)
1

Problem: Query for LNCaP cells: what IC50 does the record show for CCCCCCCCCCCCCCCCNC(=O)[C@@H]1CSC(c2cc(OC)c(OC)c(OC)c2)N1 (mixture of isomers) ?
Solution: 0.8
